System: U2OS
testName: cell viability relative to DMSO; higher = less toxic
conditionParameters: 72 h; 10 nM
measureName: cell viability
Answer format: number, then unit.

O=C(N/N=C/c1ccc(O)c(O)c1)c1cc2ccccc2cc1O	102%

Requested read-out cell viability, target or system U2OS, entry O=C(NCCCCN1CCN(c2cccc(Cl)c2Cl)CC1)c1ccc2c(c1)Cc1ccccc1-2
102%

Requested read-out cell viability, target or system U2OS, entry C/C=C1\[C@H]2C=C(C)C[C@]1(N)c1ccc(=O)[nH]c1C2 [(-)-Huperzine A]
101%

###

Overview of recorded drug sensitivity score for various compounds
Test system: Calu-3
testName: drug sensitivity score (DSS) for viability; higher = more toxic; extreme values may be limits of the assay
conditionParameters: 72 h
Answer with a bare number; do not write a unit.

Past entries and their recorded results:
N=C(C[C@@H](O)COc1ccccc1-c1ccccc1)N1CCCCC1	0.2
CN1CCN(c2ccc3[nH]c(-c4ccc5[nH]c(-c6ccc(O)cc6)nc5c4)nc3c2)CC1 [pibenzimol]	0
CCCOC(=O)c1ccc(O)cc1 [propyl 4-hydroxybenzoate]	0

Which value of drug sensitivity score has been reported for C[C@H]1[C@H](NC(=O)/C(=N\OC(C)(C)C(=O)O)c2csc(N)n2)C(=O)N1S(=O)(=O)O [aztreonam] in the records?
0

Which value of drug sensitivity score has been reported for CC1(C)S[C@@H]2[C@H](NC(=O)COc3ccccc3)C(=O)N2[C@H]1C(=O)O [penicillin-v-potassium] in the records?
0

Which value of drug sensitivity score has been reported for CNCC[C@@H](Oc1ccccc1C)c1ccccc1 [atomoxetine] in the records?
1.2

Which value of drug sensitivity score has been reported for S=C(S)OC1CC2CC1C1CCCC21 (stereo unspecified) [D609] in the records?
0

Which value of drug sensitivity score has been reported for Cn1cc(-c2ccc3nnc(C(F)(F)c4ccc5ncccc5c4)n3n2)cn1 in the records?
0

###

Tested on: U2OS
testName: relative viability EC50 (midpoint between 100% and the lowest measured viability); higher = less toxic
conditionParameters: 72 h
measureName: relative viability EC50

Past entries and their recorded results:
CCCOC(=O)c1ccc(O)cc1 [propyl 4-hydroxybenzoate]	> 10 µM
N=C(C[C@@H](O)COc1ccccc1-c1ccccc1)N1CCCCC1	> 10 µM
O=C1c2ccccc2-c2c(NCCc3ccccc3)c(=O)[nH]c3cccc1c23 [BRD7389]	0.795 µM
COC(=O)C1=C(C#N)NC(C)=C(C(=O)OC(C)C)C1c1cccc([N+](=O)[O-])c1 (centres undefined) [nilvadipine]	> 10 µM

Which value of relative viability EC50 has been reported for O=C(O)c1cn(C2CC2)c2cc(N3CCNCC3)c(F)cc2c1=O [ciprofloxacin] in the records?
> 10 µM

###

Test system: Calu-3
testName: cell viability relative to DMSO; higher = less toxic
conditionParameters: 72 h; 10000 nM
measureName: cell viability (%)
# value in %; strip the unit string

Past entries and their recorded results:
CCCCCCc1ccc(O)cc1O.Nc1c2ccccc2nc2ccccc12 [acrisorcin]	60.7
c1ccc2nc(N3CCNCC3)ccc2c1 [quipazine]	99.3
N#Cc1ccc2[nH]c(O)c(-c3ccc(CN4CCOCC4)cn3)c2c1 [AZD1080]	91.2
CC(C)=CCC/C(C)=C/CNCCNC1C2CC3CC(C2)CC1C3 (configuration not stated) [SQ-109]	94
CCOC(=O)N1CSC[C@H]1C(=O)O [telmesteine]	102

Now look at this one.
Which value of cell viability has been reported for O=C(O)c1ccccc1Nc1cc(Cl)ccc1C(=O)O [lobenzarit] in the records?
90.3
